Target: T1, human glucose-dependent insulinotropic polypeptide receptor (human, UniProt P48546 22-466)
T1 sequence (looked up): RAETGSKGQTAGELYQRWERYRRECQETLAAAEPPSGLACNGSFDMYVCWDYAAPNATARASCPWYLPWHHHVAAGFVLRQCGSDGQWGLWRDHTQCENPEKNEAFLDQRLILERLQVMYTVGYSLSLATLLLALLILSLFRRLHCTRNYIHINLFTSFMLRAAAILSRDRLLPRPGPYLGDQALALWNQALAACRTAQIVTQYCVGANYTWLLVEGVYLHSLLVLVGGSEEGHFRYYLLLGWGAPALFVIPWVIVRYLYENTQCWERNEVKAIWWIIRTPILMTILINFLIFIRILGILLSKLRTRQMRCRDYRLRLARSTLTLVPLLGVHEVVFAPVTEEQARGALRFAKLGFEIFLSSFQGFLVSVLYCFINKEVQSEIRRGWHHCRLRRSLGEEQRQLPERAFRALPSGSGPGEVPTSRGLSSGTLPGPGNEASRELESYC
Assay: cell-based or functional assay
Where no end group is shown, it is not given here. [ ]: non-standard residue; d: D form. Aib = CC(C)(N)C(=O)O

binder: Y[Aib]QGTFTSDYSIYLDKQAA[Aib]EFVNWLLAGGPSSGAPPPS-NH2 (not fully specified (residue 16); printed as Y-Aib-QGTFTSDYSIYLD-K[2-[2-[2-[[2-[2-[2-[[(4S)-4-carboxy-4-[[4-[(19-carboxynonadecanoylamino) methyl]cyclohexanecarbonyl]amino]butanoyl]amino]ethoxy ]ethoxy]acetyl]amino]ethoxy]ethoxy]acetyl]-QAA-Aib-EFVNWLLAGGPSSGAPPPS-NH2) [Compound No. 6]
hGIPR CRE Luc EC50 (pM): 7.7
//
binder: H[Aib]QGTFTSDYSIYLEKQAA[Aib]EFVQWLLEGGPSSGAPPPS-NH2 (not fully specified (residue 16); printed as H-Aib-QGTFTSDYSIYLE-K[(2S)-2-amino-6-[[(2S)-2-amino-6-[[(4S)-4-carboxy-4-(19-carboxynonadecanoylamino)butanoyl]amino]hexanoyl]amino]hexanoyl]-QAA-Aib-EFVQWLLEGGPSSGAPPPS-NH2) [Compound No. 19]
hGIPR CRE Luc EC50 (pM): 55
//
binder: H[Aib]HGTFTSDYSILLEKQAA[Aib]EFVQWLLEGGPSSGAPPPS-NH2 (not fully specified (residue 16); printed as H-Aib-HGTFTSDYSILLE-K[(2S)-2-amino-6-[[(2S)-2-amino-6-[[(4S)-4-carboxy-4-(19-carboxynonadecanoylamino)butanoyl]amino]hexanoyl]amino]hexanoyl]-QAA-Aib-EFVQWLLEGGPSSGAPPPS-NH2) [Compound No. 43]
hGIPR CRE Luc EC50 (pM): 2.8
//
binder: H[Aib]HGTFTSDYSIYLEKQAAQEFVQWLLEGGPSSGAPPPS-NH2 (not fully specified (residue 16); printed as H-Aib-HGTFTSDYSIYLE-K[(2S)-2-amino-6-[[(2S)-2-amino-6-[[(4S)-4-carboxy-4-[[4-[(19-carboxynonadecanoylamino)methyl]cyclohexanecarbonyl]amino]butanoyl]amino]hexanoyl]amino]hexanoyl]-QAAQEFVQWLLEGGPSSGAPPPS-NH2) [Compound No. 23]
hGIPR CRE Luc EC50 (pM): 5.1
//
binder: H[Aib]HGTFTSDYSIYLEKKYA[Aib]EFVQWLLEGGPSSGAPPPS-NH2 (not fully specified (residue 16); printed as H-Aib-HGTFTSDYSIYLE-K[(2S)-2-amino-6-[[(2S)-2-amino-6-[[(4S)-4-carboxy-4-(17-carboxyheptadecanoylamino)butanoyl]amino]hexanoyl]amino]hexanoyl]-KYA-Aib-EFVQWLLEGGPSSGAPPPS-NH2) [Compound No. 38]
hGIPR CRE Luc EC50 (pM): 13.1
